Assay Notes: Cytotoxicity against human HDF cells assessed as reduction in cell proliferation at 1 uM incubated for 6 hrs followed by irradiation for 30 mins with light at wavelength of 643 nm and measured after 36 to 48 hrs by MTT assay
Type: toxicity, cell-based
Conditions: time 2550-3270 min
Observed Property: inhibition at 1 µM

// recorded inhibition at 1 µM for CCCCCCCCCCCC(=O)Nc1ccc(-c2c3nc(c(-c4ccc[n+](C)c4)c4ccc([nH]4)c(-c4ccc[n+](C)c4)c4nc(c(-c5ccc[n+](C)c5)c5ccc2[nH]5)C=C4)C=C3)cc1 : < 20%

###

Assay Notes: Cytotoxicity against human A-375 cells assessed as reduction in cell viability measured after 36 to 48 hrs by MTT assay
Assay type: toxicity, cell-based
pIC50: −log10 of the molar value.
Provide the recorded pIC50 for the entries that follow.

Guide cases for pIC50, answers given:
CC(=O)Nc1ccc(-c2c3nc(c(-c4ccc[n+](C)c4)c4ccc([nH]4)c(-c4ccc[n+](C)c4)c4nc(c(-c5ccc[n+](C)c5)c5ccc2[nH]5)C=C4)C=C3)cc1.[Cl-].[Cl-].[Cl-] = < 4.00
CCCCCCCCCCCCCC(=O)Nc1ccc(-c2c3nc(c(-c4ccc[n+](C)c4)c4ccc([nH]4)c(-c4ccc[n+](C)c4)c4nc(c(-c5ccc[n+](C)c5)c5ccc2[nH]5)C=C4)C=C3)cc1.[Cl-].[Cl-].[Cl-] = < 4.00
CCCCCCCC(=O)Nc1ccc(-c2c3nc(c(-c4ccc[n+](C)c4)c4ccc([nH]4)c(-c4ccc[n+](C)c4)c4nc(c(-c5ccc[n+](C)c5)c5ccc2[nH]5)C=C4)C=C3)cc1.[Cl-].[Cl-].[Cl-] = < 4.00

For each entry beneath this line, provide reported pIC50.
1. CCCCCCCCCCCCCCCC(=O)Nc1ccc(-c2c3nc(c(-c4ccc[n+](C)c4)c4ccc([nH]4)c(-c4ccc[n+](C)c4)c4nc(c(-c5ccc[n+](C)c5)c5ccc2[nH]5)C=C4)C=C3)cc1.[Cl-].[Cl-].[Cl-]
2. CCCCCCCCCC(=O)Nc1ccc(-c2c3nc(c(-c4ccc[n+](C)c4)c4ccc([nH]4)c(-c4ccc[n+](C)c4)c4nc(c(-c5ccc[n+](C)c5)c5ccc2[nH]5)C=C4)C=C3)cc1.[Cl-].[Cl-].[Cl-]
3. CCCCCCCCCCCCCCCCCC(=O)Nc1ccc(-c2c3nc(c(-c4ccc[n+](C)c4)c4ccc([nH]4)c(-c4ccc[n+](C)c4)c4nc(c(-c5ccc[n+](C)c5)c5ccc2[nH]5)C=C4)C=C3)cc1.[Cl-].[Cl-].[Cl-]
4. CCCCCCCCCCCC(=O)Nc1ccc(-c2c3nc(c(-c4ccc[n+](C)c4)c4ccc([nH]4)c(-c4ccc[n+](C)c4)c4nc(c(-c5ccc[n+](C)c5)c5ccc2[nH]5)C=C4)C=C3)cc1

Out:
["< 4.00", "< 4.00", "< 4.00", "< 4.00"]

###

Assay Notes: Selectivity index, ratio of IC50 for cytotoxicity against human HDF cells incubated for 6 hrs followed by irradiation for 30 mins with light at wavelength of 606 nm and measured after 36 to 48 hrs to IC50 for phototoxicity against human A-375 cells incubated for 6 hrs followed by irradiation for 30 mins with light at wavelength of 606 nm and measured after 36 to 48 hrs
Type: toxicity, cell-based
Conditions: HDF cells versus A-375 cells, read-out: Ratio IC50
Observed Property: selectivity ratio
Numbers only.

selectivity ratio reading for CCCCCCCCCCCCCC(=O)Nc1ccc(-c2c3nc(c(-c4ccc[n+](C)c4)c4ccc([nH]4)c(-c4ccc[n+](C)c4)c4nc(c(-c5ccc[n+](C)c5)c5ccc2[nH]5)C=C4)C=C3)cc1.[Cl-].[Cl-].[Cl-] : 14.8
